# target system: Cytochrome P450 1A2 (Homo sapiens)
# Sequence (P05177 whole entry): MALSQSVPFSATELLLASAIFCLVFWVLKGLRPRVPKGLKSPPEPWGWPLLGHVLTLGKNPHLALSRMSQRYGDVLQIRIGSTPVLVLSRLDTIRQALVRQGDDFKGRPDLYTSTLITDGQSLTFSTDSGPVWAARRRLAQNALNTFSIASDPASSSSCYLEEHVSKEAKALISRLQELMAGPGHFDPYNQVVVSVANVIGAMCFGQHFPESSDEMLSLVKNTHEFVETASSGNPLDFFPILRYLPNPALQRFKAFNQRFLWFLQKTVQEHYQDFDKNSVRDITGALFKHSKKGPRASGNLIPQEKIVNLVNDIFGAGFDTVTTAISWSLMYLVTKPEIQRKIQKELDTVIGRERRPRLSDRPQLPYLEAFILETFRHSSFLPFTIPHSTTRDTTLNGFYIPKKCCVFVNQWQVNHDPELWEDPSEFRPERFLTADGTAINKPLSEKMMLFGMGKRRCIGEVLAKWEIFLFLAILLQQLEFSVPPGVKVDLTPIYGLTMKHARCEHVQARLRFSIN
# assay protocol: Inhibition of CYP1A2 (unknown origin)
# Type: ADME
measured parameter: IC50

smiles_input=COc1ccc2c(Oc3ccc(CC(=O)NO)cc3)ccnc2n1 measured_parameter=IC50 reported_value="> 50 µM"

Would you kindly look at the next entry?
Fill in the blank: the reported IC50 of COc1ccc2c(Oc3ccc(CP(=O)(O)O)cc3)ccnc2n1 is ____.
> 50 µM

---

In what follows, each item is paired with its IC50 for UniProt P33261.
Sequence (P33261 whole entry): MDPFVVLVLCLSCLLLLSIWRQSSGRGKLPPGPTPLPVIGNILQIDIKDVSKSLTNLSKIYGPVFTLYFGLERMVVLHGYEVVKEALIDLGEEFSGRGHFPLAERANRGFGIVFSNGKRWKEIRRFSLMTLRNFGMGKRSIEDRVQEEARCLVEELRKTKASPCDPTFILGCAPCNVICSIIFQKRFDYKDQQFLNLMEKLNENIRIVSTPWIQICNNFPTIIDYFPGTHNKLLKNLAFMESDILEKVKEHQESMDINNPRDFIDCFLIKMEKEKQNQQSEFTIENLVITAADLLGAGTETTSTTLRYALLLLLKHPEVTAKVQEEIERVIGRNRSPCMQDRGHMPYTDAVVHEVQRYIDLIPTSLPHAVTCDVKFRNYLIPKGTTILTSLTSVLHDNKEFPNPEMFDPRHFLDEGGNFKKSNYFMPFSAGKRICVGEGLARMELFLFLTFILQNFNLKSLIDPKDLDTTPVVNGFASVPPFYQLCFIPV

smiles_input=COc1ccc2c(Oc3ccc(CC(=O)NO)cc3)ccnc2n1 reported_value="> 50 µM"
smiles_input=COc1ccc2c(Oc3ccc(CP(=O)(O)O)cc3)ccnc2n1 reported_value="> 50 µM"

# get_value(readout= IC50, system= UniProt P33261) for COc1ccc2c(Oc3ccc(CC(=O)NO)cc3)ccnc2c1
4 µM

---

# target system: Ectonucleotide pyrophosphatase/phosphodiesterase family member 1 (Mus musculus, UniProt P06802)
# Sequence (P06802 whole entry): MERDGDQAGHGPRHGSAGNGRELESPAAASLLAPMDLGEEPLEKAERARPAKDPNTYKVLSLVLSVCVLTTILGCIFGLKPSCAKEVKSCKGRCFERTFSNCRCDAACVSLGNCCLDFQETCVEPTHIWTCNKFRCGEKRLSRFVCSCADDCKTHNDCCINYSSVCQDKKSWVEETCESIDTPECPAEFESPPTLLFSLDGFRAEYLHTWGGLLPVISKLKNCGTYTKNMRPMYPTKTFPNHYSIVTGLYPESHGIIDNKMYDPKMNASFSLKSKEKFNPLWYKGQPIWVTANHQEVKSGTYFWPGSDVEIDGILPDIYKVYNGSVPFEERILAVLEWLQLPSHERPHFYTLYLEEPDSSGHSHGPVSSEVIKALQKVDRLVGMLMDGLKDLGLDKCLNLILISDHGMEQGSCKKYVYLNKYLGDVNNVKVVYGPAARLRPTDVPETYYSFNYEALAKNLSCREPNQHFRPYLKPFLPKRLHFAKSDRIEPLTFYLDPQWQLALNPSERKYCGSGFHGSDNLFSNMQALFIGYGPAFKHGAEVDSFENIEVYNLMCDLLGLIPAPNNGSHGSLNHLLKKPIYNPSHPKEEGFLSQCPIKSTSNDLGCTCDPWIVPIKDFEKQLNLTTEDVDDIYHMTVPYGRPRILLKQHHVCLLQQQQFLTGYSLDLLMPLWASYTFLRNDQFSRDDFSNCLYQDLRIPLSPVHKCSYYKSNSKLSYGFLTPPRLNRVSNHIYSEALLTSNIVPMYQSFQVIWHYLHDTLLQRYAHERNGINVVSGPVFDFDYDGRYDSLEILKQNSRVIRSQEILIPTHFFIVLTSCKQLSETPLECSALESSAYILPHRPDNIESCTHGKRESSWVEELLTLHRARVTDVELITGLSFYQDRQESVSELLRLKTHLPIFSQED
measured parameter: IC50 (nM)
Numeric only. Scale: nM

Recorded IC50 for COc1cccc2c(N3CCC(CCP(=O)(O)O)CC3)ncnc12 , please?
2.2

---

# target system: Ectonucleotide pyrophosphatase/phosphodiesterase family member 1 (Homo sapiens)
# assay protocol: Inhibition of ECD-His-tagged human recombinant ENPP1 using 2',3'-cGAMP as substrate preincubated with enzyme for 15 mins followed by substrate addition and incubated in R1 reaction buffer for 1 hr and treated in R2 reaction buffer for 1 hr measured at pH 7.5 by luminescence based analysis
measured parameter: IC50 (nM)
Numbers only; they are read as nM.

# value lookup — system Ectonucleotide pyrophosphatase/phosphodiesterase family member 1 (Homo sapiens), readout IC50, item COc1cccc2c(N3CCC(CCP(=O)(O)O)CC3)ncnc12
6.2

---

# target system: Ectonucleotide pyrophosphatase/phosphodiesterase family member 1 (Homo sapiens)
# assay protocol: Inhibition of human recombinant ENPP1 at pH 8
measured parameter: Ki

State the recorded Ki for this entry: COc1ccc2c(Oc3ccc(NS(N)(=O)=O)cc3)ccnc2c1
< 100 nM

---

Here's a batch of molecules along with measured IC50 for Voltage-gated inwardly rectifying potassium channel KCNH2 (Homo sapiens, UniProt Q12809).

smiles_input=COc1ccc2c(Oc3ccc(CP(=O)(O)O)cc3)ccnc2n1 target_system="Voltage-gated inwardly rectifying potassium channel KCNH2 (Homo sapiens, UniProt Q12809)" reported_value="> 30 µM"

Now examine the next entry.
So what IC50 did COc1ccc2c(Oc3ccc(CP(=O)(OCOC(=O)C(C)(C)C)OCOC(=O)C(C)(C)C)cc3)ccnc2n1 get with Voltage-gated inwardly rectifying potassium channel KCNH2 (Homo sapiens, UniProt Q12809)?
> 30 µM

---

# target system: Ectonucleotide pyrophosphatase/phosphodiesterase family member 1 (Homo sapiens)
# Sequence (P22413 whole entry): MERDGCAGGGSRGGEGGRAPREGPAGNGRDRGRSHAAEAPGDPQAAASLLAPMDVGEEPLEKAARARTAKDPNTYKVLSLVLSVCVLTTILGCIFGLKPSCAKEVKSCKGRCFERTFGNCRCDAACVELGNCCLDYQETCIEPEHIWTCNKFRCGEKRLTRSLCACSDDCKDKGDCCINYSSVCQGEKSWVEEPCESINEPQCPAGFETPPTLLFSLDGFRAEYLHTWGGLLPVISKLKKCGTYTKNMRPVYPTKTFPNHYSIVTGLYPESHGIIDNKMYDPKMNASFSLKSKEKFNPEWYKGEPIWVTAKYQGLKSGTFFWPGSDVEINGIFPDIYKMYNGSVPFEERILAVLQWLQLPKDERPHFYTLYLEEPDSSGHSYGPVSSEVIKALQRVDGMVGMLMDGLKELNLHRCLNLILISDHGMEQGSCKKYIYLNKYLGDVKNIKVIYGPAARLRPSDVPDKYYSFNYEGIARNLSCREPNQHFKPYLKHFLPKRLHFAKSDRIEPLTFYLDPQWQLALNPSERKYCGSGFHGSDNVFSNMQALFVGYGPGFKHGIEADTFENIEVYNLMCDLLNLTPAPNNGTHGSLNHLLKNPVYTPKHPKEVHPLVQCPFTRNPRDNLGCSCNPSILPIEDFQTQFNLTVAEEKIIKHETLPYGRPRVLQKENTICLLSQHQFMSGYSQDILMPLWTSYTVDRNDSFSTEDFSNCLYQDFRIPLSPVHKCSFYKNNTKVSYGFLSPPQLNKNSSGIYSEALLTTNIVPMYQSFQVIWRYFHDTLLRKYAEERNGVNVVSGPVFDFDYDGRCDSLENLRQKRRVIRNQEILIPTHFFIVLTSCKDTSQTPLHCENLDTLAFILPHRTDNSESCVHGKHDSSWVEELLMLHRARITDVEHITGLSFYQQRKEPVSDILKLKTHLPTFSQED
# assay protocol: Inhibition of ENPP1 (unknown origin) at pH 7.5
measured parameter: Ki

Which Ki reading was recorded for the molecule COc1cccc2c(N3CCC(CCP(=O)(O)O)CC3)ncnc12 ?
< 2 nM

---

# target system: Ectonucleotide pyrophosphatase/phosphodiesterase family member 1 (Homo sapiens)
# Sequence (P22413 whole entry): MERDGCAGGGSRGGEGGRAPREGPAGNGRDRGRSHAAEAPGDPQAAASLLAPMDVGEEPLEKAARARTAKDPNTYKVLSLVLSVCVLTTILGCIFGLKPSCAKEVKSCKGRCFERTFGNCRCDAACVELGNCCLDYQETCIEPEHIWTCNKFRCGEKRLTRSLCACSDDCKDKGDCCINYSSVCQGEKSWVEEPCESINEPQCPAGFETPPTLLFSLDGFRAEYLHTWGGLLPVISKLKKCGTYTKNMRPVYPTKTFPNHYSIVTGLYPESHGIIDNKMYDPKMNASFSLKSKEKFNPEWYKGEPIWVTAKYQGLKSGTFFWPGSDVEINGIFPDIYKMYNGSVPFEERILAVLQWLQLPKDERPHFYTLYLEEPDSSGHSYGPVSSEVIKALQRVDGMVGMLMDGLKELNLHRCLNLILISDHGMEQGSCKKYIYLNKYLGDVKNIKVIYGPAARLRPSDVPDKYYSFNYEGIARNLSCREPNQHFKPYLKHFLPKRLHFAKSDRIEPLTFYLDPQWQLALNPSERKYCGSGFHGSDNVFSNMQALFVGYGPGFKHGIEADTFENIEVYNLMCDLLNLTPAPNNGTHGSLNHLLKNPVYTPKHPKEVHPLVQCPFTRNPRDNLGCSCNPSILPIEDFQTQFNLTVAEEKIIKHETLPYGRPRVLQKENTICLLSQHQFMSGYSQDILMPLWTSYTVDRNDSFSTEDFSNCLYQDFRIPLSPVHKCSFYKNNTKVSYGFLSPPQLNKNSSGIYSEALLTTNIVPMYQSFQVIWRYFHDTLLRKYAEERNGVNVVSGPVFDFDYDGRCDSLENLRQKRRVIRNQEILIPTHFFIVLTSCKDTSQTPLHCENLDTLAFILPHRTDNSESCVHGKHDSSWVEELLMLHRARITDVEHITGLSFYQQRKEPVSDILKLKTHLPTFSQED
# assay protocol: Inhibition of ENPP1 (unknown origin) at pH 8.8
pKi: −log10 of the molar value.
measured parameter: pKi

Quick one: pKi of NC(=O)c1ccc2c(ncn2Cc2ccc(P(=O)(O)O)cc2)n1 ?
> 8.00
